# System: BDF1 mice, Friend leukemia sc, tumor weight T/C
# Assay Protocol: NCI In Vivo Anticancer Drug Screen. Data for tumor model Friend Virus Leukemia (Solid) (subcutaneous) in B6D2F1 (BDF1) mice
# Test Settings: endpoint: mean tumor weight; dose: 4.0 mg/kg/injection; schedule: Q01DX011 (ip); vehicle: carboxymethylcellulose (CMC); higher = larger tumour
Results filed as inconclusive are left out.
Assay Endpoint: T/C

Request: Report T/C for O=C(Nc1ccc(C2=NCCCN2)cc1)c1ccc(NC(=O)c2ccc(C3=NCCCN3)cc2)cc1 please.
Response: 49 % of control

Request: Then this compound: CC(CCC(C)OS(C)(=O)=O)OS(C)(=O)=O (configuration not stated)
Response: 105 % of control

Request: Then this compound: COc1ccc(Nc2ccnc3cc(Cl)ccc23)cc1CN(CCCl)CCCl
Response: 42 % of control

Request: Then this compound: Nc1nc(SCc2ccccc2)c2[nH]cnc2n1
Response: 79 % of control

Request: Then this compound: Cc1nc(N2CC2)nc(N2CC2)c1[N+](=O)[O-]
Response: 41 % of control

Request: Then this compound: CCc1ccccc1N1CCN(C(=O)c2cc(OC)c(OC)c(OC)c2)CC1
Response: 67 % of control

Request: Then this compound: NC(Cc1ccc(N(CCCl)CCCl)cc1)C(=O)O (configuration not stated)
Response: 32 % of control

Request: Then this compound: NC(=O)N(CCCl)N=O
Response: 78 % of control

Request: Then this compound: CCC[CH2][Sn]([CH2]CCC)([CH2]CCC)[O]C(=O)CC[S][Sn]([CH2]CCC)([CH2]CCC)[CH2]CCC
Response: 82 % of control

Request: Then this compound: CCCCCCCCCCCCn1c(C)nc2ccccc21
Response: 97 % of control

Request: Then this compound: N[C@@H](Cc1ccc(N(CCCl)CCCl)cc1)C(=O)O
Response: 35 % of control

Request: Then this compound: c1ccc(CSc2ncnc3nc[nH]c23)nc1
Response: 46 % of control
